System: E. coli NCTC 10418
Experiment Description: MIC against human bacteria in vitro
Type: cell-based
Experimental Parameters: Escherichia coli, NCTC10418; E. coli NCTC 10418; agar with 5% chocolated horse blood, 18 hours, 37° C.; read-out: MIC
# MIC per record follows

C/C(=C\c1ncc(C)o1)C[C@@H]1OC[C@H](C[C@@H]2O[C@H]2[C@@H](C)[C@H](C)O)[C@@H](O)[C@H]1O > 128 µg/mL
C/C(=C\c1ncc(-c2ccc(CO)cc2)o1)C[C@@H]1OC[C@H](C[C@@H]2O[C@H]2[C@@H](C)[C@H](C)O)[C@@H](O)[C@H]1O > 128 µg/mL
C/C(=C\c1ncc(-c2cccc(S(C)(=O)=O)c2)o1)C[C@@H]1OC[C@H](C[C@@H]2O[C@H]2[C@@H](C)[C@H](C)O)[C@@H](O)[C@H]1O > 64 µg/mL
C/C(=C\c1ncc(-c2ccsc2)o1)C[C@@H]1OC[C@H](C[C@@H]2O[C@H]2[C@@H](C)[C@H](C)O)[C@@H](O)[C@H]1O > 128 µg/mL

Turning now to a further record.
[ask] Can you share its MIC? I mean this molecule: "C/C(=C\c1ncc(-c2ccccc2)o1)C[C@@H]1OC[C@H](C[C@@H]2O[C@H]2[C@@H](C)[C@H](C)O)[C@@H](O)[C@H]1O"
[reply] > 100 µg/mL

---

System: Past. multocida PA2
Experiment Description: MIC against veterinary bacteria in vitro
Experimental Parameters: Pasteurella multocida, PA2, 18 h
The reader will find reported MIC values listed item by item below.

Compound	Measured Parameter	Obs Value
C/C(=C\c1ncc(-c2ccc(C(=O)O)cc2)o1)C[C@@H]1OC[C@H](C[C@@H]2O[C@H]2[C@@H](C)[C@H](C)O)[C@@H](O)[C@H]1O [Example 17]	MIC	1.25 µg/mL
C/C(=C\c1ncc(-c2ccccc2[N+](=O)[O-])o1)C[C@@H]1OC[C@H](C[C@@H]2O[C@H]2[C@@H](C)[C@H](C)O)[C@@H](O)[C@H]1O [Example 26]	MIC	5 µg/mL
C/C(=C\c1ncc(-c2ccc(S(C)(=O)=O)cc2)o1)C[C@@H]1OC[C@H](C[C@@H]2O[C@H]2[C@@H](C)[C@H](C)O)[C@@H](O)[C@H]1O [Example 10]	MIC	1.25 µg/mL

[ask] I'm curious: which MIC was measured for C/C(=C\c1ncc(-c2ccc([S+](C)[O-])cc2)o1)C[C@@H]1OC[C@H](C[C@@H]2O[C@H]2[C@@H](C)[C@H](C)O)[C@@H](O)[C@H]1O (stereo partly drawn) [Example 11] tested on Past. multocida PA2?
[reply] 0.625 µg/mL

[ask] Then what about the compound COc1ccc(-c2cnc(/C=C(\C)C[C@@H]3OC[C@H](C[C@@H]4O[C@H]4[C@@H](C)[C@H](C)O)[C@@H](O)[C@H]3O)o2)cc1 [Example 4] ?
[reply] 5 µg/mL

[ask] Subsequent entry: C/C(=C\c1ncc(-c2ccc(Br)s2)o1)C[C@@H]1OC[C@H](C[C@@H]2O[C@H]2[C@@H](C)[C@H](C)O)[C@@H](O)[C@H]1O [Example 28]
[reply] 2.5 µg/mL

---

System: K. aerogenes A
Experiment Description: MIC against human bacteria in vitro
Type: cell-based
Experimental Parameters: Klebsiella aerogenes; K. aerogenes A; 5% chocolated horse blood agar, 18 hours; read-out: MIC
Reported MIC values follow for various compounds

Check out these entries, answers already filled in.
C/C(=C\c1ncc(CCCCCCCC(=O)O)o1)C[C@@H]1OC[C@H](C[C@@H]2O[C@H]2[C@@H](C)[C@H](C)O)[C@@H](O)[C@H]1O > 16 µg/mL
C/C(=C\c1nc(-c2ccccc2)c(-c2ccccc2)o1)C[C@@H]1OC[C@H](C[C@@H]2O[C@H]2[C@@H](C)[C@H](C)O)[C@@H](O)[C@H]1O > 100 µg/mL

Field: next compound
[ask] Name the recorded MIC for "C/C(=C\c1ncc(-c2ccc(S(C)(=O)=O)cc2)o1)C[C@@H]1OC[C@H](C[C@@H]2O[C@H]2[C@@H](C)[C@H](C)O)[C@@H](O)[C@H]1O" .
[reply] > 128 µg/mL

---

System: M. gallisepticum S6
Experiment Description: MIC against mycoplasma in vitro
Assay type: cell-based
Experimental Parameters: Mycoplasmoides gallisepticum, 144 h; M. gallisepticum S6; 6 days, 37° C.; read-out: MIC
Reported MIC values for a set of molecules
Write the answer as a number in µg/mL, unit excluded.

C/C(=C\c1ncc(-c2cccc(C#N)c2)o1)C[C@@H]1OC[C@H](C[C@@H]2O[C@H]2[C@@H](C)[C@H](C)O)[C@@H](O)[C@H]1O 0.5

[ask] Item under review: "C/C(=C\c1ncc(CCCCCCCCO)o1)C[C@@H]1OC[C@H](C[C@@H]2O[C@H]2[C@@H](C)[C@H](C)O)[C@@H](O)[C@H]1O" . Reported MIC?
[reply] 10

[ask] Param item: "C/C(=C\c1ncc(-c2ccc(CO)cc2)o1)C[C@@H]1OC[C@H](C[C@@H]2O[C@H]2[C@@H](C)[C@H](C)O)[C@@H](O)[C@H]1O"
[reply] 0.5

---

Entries and their MIC values follow.
Test system: Past. multocida PA1
Experiment Description: MIC against veterinary bacteria in vitro
Experimental Parameters: Pasteurella multocida, PA1, 18 h
Just the number please, in µg/mL, no unit attached.

C/C(=C\c1ncc(-c2cccc(C#N)c2)o1)C[C@@H]1OC[C@H](C[C@@H]2O[C@H]2[C@@H](C)[C@H](C)O)[C@@H](O)[C@H]1O 5

Please find the next compound below.
[ask] Can you share its MIC? I mean this compound: "COc1ccc(-c2cnc(/C=C(\C)C[C@@H]3OC[C@H](C[C@@H]4O[C@H]4[C@@H](C)[C@H](C)O)[C@@H](O)[C@H]3O)o2)cc1"
[reply] 5

---

System: M. suipneumoniae NB12
Experiment Description: MIC against mycoplasma in vitro
Format: cell-based
Experimental Parameters: Mesomycoplasma hyopneumoniae, NB12, 144 h
Catalogue of MIC values
Respond with the bare value in µg/mL.

// below: answered compounds
C/C(=C\c1ncc(Cc2ccccc2)o1)C[C@@H]1OC[C@H](C[C@@H]2O[C@H]2[C@@H](C)[C@H](C)O)[C@@H](O)[C@H]1O 5
C/C(=C\c1ncc(-c2ccccc2[N+](=O)[O-])o1)C[C@@H]1OC[C@H](C[C@@H]2O[C@H]2[C@@H](C)[C@H](C)O)[C@@H](O)[C@H]1O 2.5

[ask] Reported MIC, compound "C/C(=C\c1cc(C)on1)C[C@@H]1OC[C@H](C[C@@H]2O[C@H]2[C@@H](C)[C@H](C)O)[C@@H](O)[C@H]1O" : ____
[reply] 2.5

---

Tested on: M. suipneumoniae TAM 6N
Experiment Description: MIC against mycoplasma in vitro
Type: cell-based
Experimental Parameters: Mesomycoplasma hyopneumoniae, TAM6N, 144 h; M. suipneumoniae TAM 6N; 6 days, 37° C.; read-out: MIC
Measured Parameter: MIC

# example entries with known answers
C/C(=C\c1cc(-c2ccccc2)no1)C[C@@H]1OC[C@H](C[C@@H]2O[C@H]2[C@@H](C)[C@H](C)O)[C@@H](O)[C@H]1O 10 µg/mL
COC(=O)c1ccc(-c2cnc(/C=C(\C)C[C@@H]3OC[C@H](C[C@@H]4O[C@H]4[C@@H](C)[C@H](C)O)[C@@H](O)[C@H]3O)o2)cc1 0.5 µg/mL

Then this compound:
[ask] Which MIC is listed for "C/C(=C\c1ncc(CCCCCCCC(=O)O)o1)C[C@@H]1OC[C@H](C[C@@H]2O[C@H]2[C@@H](C)[C@H](C)O)[C@@H](O)[C@H]1O" ?
[reply] > 10 µg/mL

---

Tested on: Sarcina lutea 8340
Experiment Description: MIC against human bacteria in vitro
Format: cell-based
Experimental Parameters: Micrococcus luteus; Sarcina lutea 8340; 5% chocolated horse blood agar, 18 hours; read-out: MIC
# Lookup of reported MIC keyed by entry

Reference set, count: 3
Molecule	MIC
C/C(=C\c1ncc(-c2ccc([S+](C)[O-])cc2)o1)C[C@@H]1OC[C@H](C[C@@H]2O[C@H]2[C@@H](C)[C@H](C)O)[C@@H](O)[C@H]1O (some centres unmarked)	> 128 µg/mL
C/C(=C\c1ncc(C)o1)C[C@@H]1OC[C@H](C[C@@H]2O[C@H]2[C@@H](C)[C@H](C)O)[C@@H](O)[C@H]1O	> 128 µg/mL
C/C(=C\c1nc(C)c(C)o1)C[C@@H]1OC[C@H](C[C@@H]2O[C@H]2[C@@H](C)[C@H](C)O)[C@@H](O)[C@H]1O	> 100 µg/mL

[ask] Give its MIC value. Item: "C/C(=C\c1ncc(CCCCCCCCO)o1)C[C@@H]1OC[C@H](C[C@@H]2O[C@H]2[C@@H](C)[C@H](C)O)[C@@H](O)[C@H]1O"
[reply] 128 µg/mL

[ask] Thanks! And "C/C(=C\c1ncc(-c2ccc(S(=O)(=O)N(C)C)cc2)o1)C[C@@H]1OC[C@H](C[C@@H]2O[C@H]2[C@@H](C)[C@H](C)O)[C@@H](O)[C@H]1O" ?
[reply] > 128 µg/mL
